Ref: patent US20220119354A1

Please go through the items and note down their Ragweed plant response rating.
Tested on: ragweed (common ragweed, Ambrosia elatior)
experiment description: Test A preemergence, ragweed
Type: in vivo
measurement setup: 125 g ai/ha, 0 to 100 scale, 0 is no effect, 100 is complete control

Lookup: Which Ragweed plant response rating is reported with ragweed (common ragweed, Ambrosia elatior) for this entry: Nc1nc(N[C@@H](c2coc3ccccc23)C2CC2)ncc1C(F)(F)F ?
Found: 100

Lookup: Which Ragweed plant response rating is reported with ragweed (common ragweed, Ambrosia elatior) for this entry: CC[C@H](Nc1ncc(C(F)(F)F)c(N)n1)c1cc2ccc(F)cc2s1 ?
Found: 0

Lookup: Which Ragweed plant response rating is reported with ragweed (common ragweed, Ambrosia elatior) for this entry: C[C@@H](Nc1ncc(C(F)(F)F)c(N)n1)c1coc2cc(Cl)ccc12 ?
Found: 100

Lookup: Which Ragweed plant response rating is reported with ragweed (common ragweed, Ambrosia elatior) for this entry: C[C@@H](Nc1nc(N)c(C(F)(F)F)c(C(F)(F)F)n1)C1Cc2ccccc2C1 ?
Found: 0

Lookup: Which Ragweed plant response rating is reported with ragweed (common ragweed, Ambrosia elatior) for this entry: CC[C@@H](Nc1ncc(C(F)(F)F)c(N)n1)c1cc2ccccc2s1 ?
Found: 100

Lookup: Which Ragweed plant response rating is reported with ragweed (common ragweed, Ambrosia elatior) for this entry: CC(Nc1ncc(C(F)(F)F)c(N)n1)c1cc2ccc(F)c(F)c2s1 (stereo not drawn) ?
Found: 100

Lookup: Which Ragweed plant response rating is reported with ragweed (common ragweed, Ambrosia elatior) for this entry: Nc1nc(NC(c2cc3ccccc3s2)C2CC2)ncc1C(F)(F)F (racemic) ?
Found: 50

Lookup: Which Ragweed plant response rating is reported with ragweed (common ragweed, Ambrosia elatior) for this entry: C[C@@H](Nc1ncc(C(F)(F)F)c(N)n1)c1cc2ccccc2[s+]1[O-] (stereo partly drawn) ?
Found: 20

Lookup: Which Ragweed plant response rating is reported with ragweed (common ragweed, Ambrosia elatior) for this entry: Cc1ccc2c(C(C)Nc3ncc(C(F)(F)F)c(N)n3)coc2c1 (stereo not drawn) ?
Found: 90

Lookup: Which Ragweed plant response rating is reported with ragweed (common ragweed, Ambrosia elatior) for this entry: C[C@@H](Nc1ncc(C(F)(F)F)c(N)n1)c1cc2cccc(F)c2s1 ?
Found: 100

Lookup: Which Ragweed plant response rating is reported with ragweed (common ragweed, Ambrosia elatior) for this entry: C[C@@H](Nc1nc(N)c(C(F)(F)F)c(C(F)F)n1)c1cc2ccccc2o1 ?
Found: 90

Lookup: Which Ragweed plant response rating is reported with ragweed (common ragweed, Ambrosia elatior) for this entry: C[C@@H](Nc1ncc(C(F)(F)F)c(N)n1)c1csc2ccccc12 ?
Found: 90

Lookup: Which Ragweed plant response rating is reported with ragweed (common ragweed, Ambrosia elatior) for this entry: CC(Nc1nc(N)c(C(F)(F)F)c(C(F)(F)F)n1)C1Cc2ccccc2C1 (racemic) ?
Found: 0

Lookup: Which Ragweed plant response rating is reported with ragweed (common ragweed, Ambrosia elatior) for this entry: C[C@H](Nc1ncc(C(F)(F)F)c(N)n1)c1cc2ccc(F)cc2s1 ?
Found: 0

Lookup: Which Ragweed plant response rating is reported with ragweed (common ragweed, Ambrosia elatior) for this entry: C[C@H](Nc1ncc(C(F)(F)F)c(N)n1)c1csc2ccccc12 ?
Found: 0

Lookup: Which Ragweed plant response rating is reported with ragweed (common ragweed, Ambrosia elatior) for this entry: Nc1nc(N[C@H](c2coc3ccccc23)C2CC2)ncc1C(F)(F)F ?
Found: 0

Lookup: Which Ragweed plant response rating is reported with ragweed (common ragweed, Ambrosia elatior) for this entry: C[C@@H](Nc1ncc(C(F)(F)F)c(N)n1)c1cc2ccccc2n1C ?
Found: 20

Lookup: Which Ragweed plant response rating is reported with ragweed (common ragweed, Ambrosia elatior) for this entry: C[C@H](Nc1nc(N)c(C(F)(F)F)c(C(F)(F)F)n1)C1Cc2ccccc2C1 ?
Found: 0

----------
System: kochia (Kochia scoparia)
experiment description: Test A preemergence, kochia
Format: in vivo
measurement setup: 500 g ai/ha, 0 to 100 scale, 0 is no effect, 100 is complete control
Please go through the items and note down their Kochia plant response rating.
Output spec: single numeric token, no unit.

Lookup: Would you kindly share the measured Kochia plant response rating for CC[C@H](Nc1ncc(C(F)(F)F)c(N)n1)c1cc2ccccc2s1 [Compound 44] ?
Found: 0

Lookup: Would you kindly share the measured Kochia plant response rating for C[C@@H](Nc1nc(N)c(C(F)(F)F)c(C(F)(F)F)n1)C1Cc2ccccc2C1 [Compound 67] ?
Found: 90

Lookup: Would you kindly share the measured Kochia plant response rating for CC(Nc1ncc(C(F)(F)F)c(N)n1)c1cc2c(Br)cccc2o1 (stereo not drawn) [Compound 102] ?
Found: 90

Lookup: Would you kindly share the measured Kochia plant response rating for Nc1nc(NC(c2cc3ccccc3o2)C2CC2)ncc1C(F)(F)F (stereo not drawn) [Compound 88] ?
Found: 100

Lookup: Would you kindly share the measured Kochia plant response rating for Cc1cccc2oc(C(C)Nc3ncc(C(F)(F)F)c(N)n3)cc12 (stereo not drawn) [Compound 101] ?
Found: 90

Lookup: Would you kindly share the measured Kochia plant response rating for C[C@H](Nc1ncc(C(F)(F)F)c(N)n1)c1cc2c(F)cccc2o1 [Compound 74] ?
Found: 0

----------
Please go through the items and note down their Pigweed plant response rating.
System: pigweed (Amaranthus retroflexus)
experiment description: Test A preemergence, pigweed
Format: in vivo
measurement setup: 125 g ai/ha, 0 to 100 scale, 0 is no effect, 100 is complete control
Output spec: single numeric token, no unit.

Lookup: Which Pigweed plant response rating is reported with pigweed (Amaranthus retroflexus) for this entry: C[C@H](Nc1ncc(C(F)(F)F)c(N)n1)c1cc2ccccc2n1C ?
Found: 0

Lookup: Which Pigweed plant response rating is reported with pigweed (Amaranthus retroflexus) for this entry: CC[C@H](Nc1ncc(C(F)(F)F)c(N)n1)c1cc2ccc(F)cc2o1 ?
Found: 0

Lookup: Which Pigweed plant response rating is reported with pigweed (Amaranthus retroflexus) for this entry: CC(Nc1ncc(C(F)(F)F)c(N)n1)c1cc2ccc(Cl)cc2s1 (racemic) ?
Found: 30

Lookup: Which Pigweed plant response rating is reported with pigweed (Amaranthus retroflexus) for this entry: C[C@H](Nc1nc(N)c(C(F)(F)F)c(C(F)(F)F)n1)C1Cc2ccccc2C1 ?
Found: 0

----------
Tested on: ragweed (common ragweed, Ambrosia elatior)
experiment description: Test A postemergence, ragweed
Assay type: in vivo
measurement setup: 500 g ai/ha, 0 to 100 scale
attribute measured: Plant response rating, Ragweed

Lookup: Would you kindly share the measured Plant response rating, Ragweed for C[C@@H](Nc1ncc(C(F)(F)F)c(N)n1)c1cc2cc(F)c(F)cc2o1 ?
Found: 80

Lookup: Would you kindly share the measured Plant response rating, Ragweed for CC(Nc1ncc(C#N)c(N)n1)c1cc2ccccc2o1 (racemic) ?
Found: 0

Lookup: Would you kindly share the measured Plant response rating, Ragweed for Cc1ccc2oc([C@@H](C)Nc3ncc(C(F)(F)F)c(N)n3)cc2c1 ?
Found: 80

----------
System: pigweed (Amaranthus retroflexus)
experiment description: Test A preemergence, pigweed
Type: in vivo
measurement setup: 500 g ai/ha, 0 to 100 scale, 0 is no effect, 100 is complete control
Please go through the items and note down their Pigweed plant response rating.

Lookup: Would you kindly share the measured Pigweed plant response rating for Nc1nc(N[C@@H](c2cc3ccccc3s2)C2CC2)ncc1C(F)(F)F ?
Found: 100

Lookup: Would you kindly share the measured Pigweed plant response rating for Cc1nc(NC(C)c2cc3ccccc3s2)nc(N)c1C(F)(F)F (stereo not drawn) ?
Found: 100

Lookup: Would you kindly share the measured Pigweed plant response rating for Nc1nc(NC(c2cc3ccccc3o2)C2CC2)ncc1C(F)(F)F (stereo not drawn) [Compound 89] ?
Found: 0

Lookup: Would you kindly share the measured Pigweed plant response rating for Cc1cccc2oc(C(C)Nc3ncc(C(F)(F)F)c(N)n3)cc12 (stereo not drawn) ?
Found: 100

Lookup: Would you kindly share the measured Pigweed plant response rating for C[C@H](Nc1nc(N)c(C(F)(F)F)c(C(F)(F)F)n1)c1cc2ccccc2s1 ?
Found: 0

Lookup: Would you kindly share the measured Pigweed plant response rating for Nc1nc(N[C@H](c2coc3ccccc23)C2CC2)ncc1C(F)(F)F ?
Found: 20

Lookup: Would you kindly share the measured Pigweed plant response rating for CC(Nc1ncc([N+](=O)[O-])c(N)n1)c1cc2ccccc2s1 (stereo not drawn) ?
Found: 100

Lookup: Would you kindly share the measured Pigweed plant response rating for C[C@H](Nc1nc(N)c(C(F)(F)F)c(C(F)(F)F)n1)C1Cc2ccccc2C1 ?
Found: 0

Lookup: Would you kindly share the measured Pigweed plant response rating for Cc1nc(NC(C)c2coc3ccccc23)nc(N)c1C(F)(F)F (stereo not drawn) ?
Found: 100

Lookup: Would you kindly share the measured Pigweed plant response rating for C[C@@H](Nc1nc(N)c(C(F)(F)F)c(C(F)(F)F)n1)c1cc2ccccc2s1 ?
Found: 80

Lookup: Would you kindly share the measured Pigweed plant response rating for CC(Nc1ncc(C(F)(F)F)c(N)n1)c1cc2c(Br)cccc2o1 (stereo not drawn) ?
Found: 100

Lookup: Would you kindly share the measured Pigweed plant response rating for C[C@@H](Nc1ncc(C(F)(F)F)c(N)n1)c1cc2cccc(F)c2o1 ?
Found: 100
